- test: NCI Yeast Anticancer Drug Screen. Data for the sgs1 mgt1 strain (AID 161);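 also: 0% = growth of cultures given vehicle only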
- experimental setup: S. cerevisiae sgs1 mgt1 strain, at 5.0 µM (retest, dose inferred, filed as 0.5), active compounds read high
About 79,000 compounds went through this panel and 15% of them were active in at least one assay; those are over-represented in the sample as a whole.
measured quantity: growth inhibition (%)

| compound | observed |
| --- | --- |
| O=[N+]([O-])/C=C/c1ccc([N+](=O)[O-])cc1 | 99 |
| CN(C)C(=S)[S][Hg][c]1ccccc1 | 101 |
| CC12CCC(=O)C=C1CCC1C2CCC2(C)C(O[Si](C)(C)OC3CCC4C5CCC6=CC(=O)CCC6(C)C5CCC34C)CCC12 (stereo unspecified) | 0 |
| CCC1CN1P(=O)(Oc1ccccc1)N1CC1CC (stereo unspecified) | -1 |
| CO/C1=C\C(C)=C\C(C)C(O)C(C)C/C(C)=C/C=C/C(OC)C(C(C)C(O)C(C)C2(O)CC(O)C(C)C(C(C)C)O2)OC1=O (stereo unspecified) | 8 |
| O=P(c1ccccc1)(c1ccccc1)c1ccccc1.[Cl][Sn]([c]1ccccc1)([c]1ccccc1)[c]1ccccc1 | 99 |
| CCOP(=O)(OCC)C(O)c1ccccc1Cl (stereo unspecified) | 3 |
| COc1ccc([As]=[As]c2ccc(OC)c(I)c2)cc1I (stereo unspecified) | 99 |
| CCOP(=S)(OCC)SCc1c(C)c(C)c(CSP(=S)(OCC)OCC)c(C)c1C | -8 |
| CCCCCc1cc(O)c(CCCC)c(O)c1 | -43 |
| C[C@]12CCC(O)CC1=CC[C@@H]1[C@@H]2CC[C@]2(C)C(=O)[C@H](n3ccnc3)C[C@@H]12 (stereo partly specified) | 18 |
| CC(=O)[C-](Cl)C(C)=O.CC(=O)[C-](Cl)C(C)=O.CC(=O)[C-](Cl)C(C)=O.[Ru+3] | 16 |
| O=C(C[n+]1ccccc1)C1CCc2ccccc2C1 (stereo unspecified) | -1 |
| C[CH2][Sn]1([CH2]C)[O]C2C(OC)OC3COC(c4ccccc4)OC3C2[O]1 (stereo unspecified) | 67 |
| O=P(c1cccc(C(F)(F)F)c1)(c1cccc(C(F)(F)F)c1)c1cccc(C(F)(F)F)c1.O=P(c1cccc(C(F)(F)F)c1)(c1cccc(C(F)(F)F)c1)c1cccc(C(F)(F)F)c1.[Cl][Sn]([Cl])([Cl])[Cl] | 3 |
| CC(=O)C(CN(C)Cc1ccccc1)C(c1ccccc1)c1c(O)c2ccccc2oc1=O (stereo unspecified) | 24 |
| CC(=O)[O][Hg][c]1ccc(N)[c]([Hg][O]C(C)=O)c1 | 99 |
| COc1cc(C2c3[nH]c4ccccc4c3[C@@H](Nc3ccc(C#N)cc3)[C@H]3COC(=O)N23)cc(OC)c1O (stereo partly specified) | -15 |
| OC(c1ccccc1)(c1ccccc1)c1ccccn1 | -5 |
| O=[As]c1ccc(O)c(O)c1 (stereo unspecified) | -4 |
| C/C(=N\NC(N)=O)C(CN1CCCCC1)C(c1ccccc1)c1c(O)c2ccccc2oc1=O (stereo unspecified) | 6 |
| CCOc1c(Br)cc(/C=C(\C)[N+](=O)[O-])cc1OC | 6 |
| ClC(CN1CCCCC1)C(Cl)c1ccccc1 (stereo unspecified) | 5 |
| CC(=O)[O-].CC(=O)[O-].O=C([CH-]C(=O)c1ccccc1)c1ccccc1.[Nd+3].[OH3+] | 30 |
| O=[N+]([O-])/C=C\c1ccc2c(c1)OCO2 | 99 |
| C/C=C1/C(=O)O[C@]23C=C[C@@H]4C(C(=O)OC)=CO[C@H](O[C@@H]12)[C@@H]43 | 63 |
